pKi: −log10 of the molar value.
For reference, pKi measured on hM3R (Homo sapiens):
Value Type: pKi

Input Smiles	Reading
NCCOCCOCCC(=O)NCCOCCOCCNc1ccccc1C(=O)N1CCC(N2CCC(Cc3ccc(S(=O)(=O)c4cccc(Cl)c4)cc3)CC2)CC1.O=C(O)C(F)(F)F	6.43
NCCOCCOCCNc1ccccc1C(=O)N1CCC(N2CCC(Cc3ccc(S(=O)(=O)c4cccc(Cl)c4)cc3)CC2)CC1	6.30
